These entries and their values trace back to ChEMBL document CHEMBL3085631.

MEASURED_ON: Glutamate receptor ionotropic, kainate 1 (Homo sapiens, UniProt P39086)
Sequence (P39086 whole entry): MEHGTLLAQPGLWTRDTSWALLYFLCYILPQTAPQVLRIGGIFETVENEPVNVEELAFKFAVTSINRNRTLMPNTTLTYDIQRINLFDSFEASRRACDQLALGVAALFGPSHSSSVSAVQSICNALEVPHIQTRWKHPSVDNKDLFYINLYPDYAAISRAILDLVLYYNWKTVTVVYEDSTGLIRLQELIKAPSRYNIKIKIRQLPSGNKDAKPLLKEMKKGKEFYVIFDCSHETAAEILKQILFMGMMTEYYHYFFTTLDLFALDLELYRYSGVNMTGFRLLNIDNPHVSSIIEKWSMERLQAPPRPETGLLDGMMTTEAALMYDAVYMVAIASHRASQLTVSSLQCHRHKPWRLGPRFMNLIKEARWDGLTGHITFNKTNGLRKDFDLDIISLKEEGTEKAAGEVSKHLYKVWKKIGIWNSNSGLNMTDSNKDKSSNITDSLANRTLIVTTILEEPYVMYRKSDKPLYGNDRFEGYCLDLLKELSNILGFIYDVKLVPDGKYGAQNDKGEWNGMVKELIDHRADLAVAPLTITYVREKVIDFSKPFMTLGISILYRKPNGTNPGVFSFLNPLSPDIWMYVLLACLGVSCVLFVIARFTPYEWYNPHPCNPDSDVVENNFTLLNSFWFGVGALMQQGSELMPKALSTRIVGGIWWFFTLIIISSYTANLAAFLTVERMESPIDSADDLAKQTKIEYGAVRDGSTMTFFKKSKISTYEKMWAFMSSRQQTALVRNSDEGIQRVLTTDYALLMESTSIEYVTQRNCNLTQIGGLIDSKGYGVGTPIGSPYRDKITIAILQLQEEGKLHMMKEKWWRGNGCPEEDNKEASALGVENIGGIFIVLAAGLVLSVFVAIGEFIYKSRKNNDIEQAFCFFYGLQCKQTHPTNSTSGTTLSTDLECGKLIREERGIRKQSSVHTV
pKi: −log10 of the molar value.
molecules and their reported pKi

{"STRUCTURE_SMILES_STRING": "O=C(O)[C@@H]1C[C@H]2C[C@@H](Oc3c(F)cccc3-c3nnn[nH]3)CC[C@H]2CN1", "pKi": 3.37}
{"STRUCTURE_SMILES_STRING": "O=C(O)[C@@H]1C[C@H]2C[C@@H](Oc3cc(-c4ccccc4Cl)ccc3-c3nnn[nH]3)CC[C@H]2CN1", "pKi": 6.00}
{"STRUCTURE_SMILES_STRING": "O=C(O)[C@@H]1C[C@H]2C[C@@H](Oc3cc(-c4cccc(Cl)c4)ccc3-c3nnn[nH]3)CC[C@H]2CN1", "pKi": 6.15}
{"STRUCTURE_SMILES_STRING": "Cl.O=C(O)[C@@H]1C[C@H]2C[C@@H](Oc3cc(OCc4ccccc4)ccc3-c3nnn[nH]3)CC[C@H]2CN1", "pKi": 6.80}
{"STRUCTURE_SMILES_STRING": "Cc1cccc(N[C@H]2CC[C@H]3CN[C@H](C(=O)O)C[C@H]3C2)c1-c1nnn[nH]1", "pKi": 5.49}
{"STRUCTURE_SMILES_STRING": "O=C(O)[C@@H]1C[C@H]2C[C@@H](Nc3ccccc3-c3nn[nH]n3)CC[C@H]2CN1", "pKi": 6.10}
{"STRUCTURE_SMILES_STRING": "Cl.O=C(O)[C@@H]1C[C@H]2C[C@@H](Oc3cc(Cc4ccccc4)ccc3-c3nnn[nH]3)CC[C@H]2CN1", "pKi": 6.80}
{"STRUCTURE_SMILES_STRING": "Cl.O=C(O)[C@@H]1C[C@H]2C[C@@H](Sc3ccccc3-c3nnn[nH]3)CC[C@H]2CN1", "pKi": 6.22}
{"STRUCTURE_SMILES_STRING": "O=C(O)[C@@H]1C[C@H]2C[C@@H](Oc3cc(CCc4ccccc4)ccc3-c3nnn[nH]3)CC[C@H]2CN1", "pKi": 5.77}
{"STRUCTURE_SMILES_STRING": "O=C(O)[C@@H]1C[C@H]2C[C@@H](Oc3ccccc3-c3nn[nH]n3)CC[C@H]2CN1", "pKi": 5.92}
{"STRUCTURE_SMILES_STRING": "CC(C)Oc1ccc(-c2nnn[nH]2)c(O[C@H]2CC[C@H]3CN[C@H](C(=O)O)C[C@H]3C2)c1.Cl", "pKi": 6.05}
{"STRUCTURE_SMILES_STRING": "Cl.O=C(O)[C@@H]1C[C@H]2C[C@@H](Oc3cccc(Cl)c3-c3nnn[nH]3)CC[C@H]2CN1", "pKi": 6.70}
{"STRUCTURE_SMILES_STRING": "COc1cccc(N[C@H]2CC[C@H]3CN[C@H](C(=O)O)C[C@H]3C2)c1-c1nnn[nH]1", "pKi": 4.89}
{"STRUCTURE_SMILES_STRING": "COc1ccc(-c2nnn[nH]2)c(O[C@H]2CC[C@H]3CN[C@H](C(=O)O)C[C@H]3C2)c1", "pKi": 5.85}
{"STRUCTURE_SMILES_STRING": "Cl.O=C(O)[C@@H]1C[C@H]2C[C@@H](Cc3ccccc3-c3nnn[nH]3)CC[C@H]2CN1", "pKi": 5.52}
{"STRUCTURE_SMILES_STRING": "Cl.O=C(O)[C@@H]1C[C@H]2C[C@@H](Oc3cc(-c4ccccc4)ccc3-c3nnn[nH]3)CC[C@H]2CN1", "pKi": 7.00}
{"STRUCTURE_SMILES_STRING": "O=C(O)[C@@H]1C[C@H]2C[C@@H](Oc3cc(-c4nccs4)ccc3-c3nnn[nH]3)CC[C@H]2CN1", "pKi": 6.05}
